- testedOn: T1, human PRLR (Biacore antigen) (human, UniProt P16471 25-234, limits assumed)
- T1 construct: The construct injected over captured antibody is not described (a soluble form is likely); also called huPRLR
- T1 sequence: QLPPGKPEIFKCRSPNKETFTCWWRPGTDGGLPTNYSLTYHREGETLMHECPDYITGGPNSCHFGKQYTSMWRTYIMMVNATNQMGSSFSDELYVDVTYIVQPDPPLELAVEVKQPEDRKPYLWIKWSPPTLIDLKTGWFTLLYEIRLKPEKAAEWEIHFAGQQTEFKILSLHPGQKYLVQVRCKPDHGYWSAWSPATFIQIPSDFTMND
- testProtocol: SPR simultaneous binding; PRLR held by surface mAb chAb7
metric: solution mAb binding, % of PRLR binding (%)
Answers are plain numbers, in %.

binder	solution mAb binding, % of PRLR binding / %
Ab21 (antibody, human IgG1, kappa, V domains shown, humanized from Ab6; G1; also called Ab1 HC.1a and Ab1 LC.2a) VH: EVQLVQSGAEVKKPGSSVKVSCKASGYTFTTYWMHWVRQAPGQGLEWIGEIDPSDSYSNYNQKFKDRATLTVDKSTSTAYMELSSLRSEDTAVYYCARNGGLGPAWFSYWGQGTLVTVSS VL: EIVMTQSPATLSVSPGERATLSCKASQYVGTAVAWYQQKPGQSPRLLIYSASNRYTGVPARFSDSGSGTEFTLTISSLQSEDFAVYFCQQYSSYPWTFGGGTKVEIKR	0
chAb7 (antibody, human IgG1, kappa, V domains shown, chimeric, murine variable and human G1/kappa constant regions) VH: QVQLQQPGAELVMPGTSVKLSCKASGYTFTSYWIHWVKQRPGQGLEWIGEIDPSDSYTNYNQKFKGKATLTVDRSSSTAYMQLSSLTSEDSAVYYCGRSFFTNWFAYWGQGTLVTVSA VL: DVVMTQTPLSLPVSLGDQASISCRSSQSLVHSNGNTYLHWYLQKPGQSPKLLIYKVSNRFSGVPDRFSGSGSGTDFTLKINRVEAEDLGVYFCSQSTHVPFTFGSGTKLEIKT	0

Now let's try a different one.
-- ask // returns reported solution mAb binding, % of PRLR binding for input Ab30 (antibody, human IgG1, kappa, V domains shown, humanized from Ab5; G1; also called Ab2 HC.1a and Ab2 LC.1a) VH: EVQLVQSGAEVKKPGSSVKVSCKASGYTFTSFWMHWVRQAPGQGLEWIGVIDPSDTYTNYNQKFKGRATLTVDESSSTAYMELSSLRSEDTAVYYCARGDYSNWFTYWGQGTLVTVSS VL: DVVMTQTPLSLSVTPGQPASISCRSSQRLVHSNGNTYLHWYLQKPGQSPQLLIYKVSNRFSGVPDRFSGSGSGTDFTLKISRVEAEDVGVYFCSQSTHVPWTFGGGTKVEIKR
-- reply 0
